Let's look at some binders and their measured kd mutant/kd wt.
Biological target: T1, human TGFβ2 (human, UniProt P61812 303-414)
T1 construct: also called TGFβ2 homodimer
T1 sequence: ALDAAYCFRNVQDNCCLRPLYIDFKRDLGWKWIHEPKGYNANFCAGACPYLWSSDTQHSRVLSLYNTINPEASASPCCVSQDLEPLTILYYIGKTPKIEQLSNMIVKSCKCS
Test: Biacore off-rate vs wt GC1008
Output spec: single numeric token, no unit.

I54N (antibody, V domains shown, GC1008 IgG4 variant) VH: QVQLVQSGAEVKKPGSSVKVSCKASGYTFSSNVISWVRQAPGQGLEWMGGVIPNVDIANYAQRFKGRVTITADESTSTTYMELSSLRSEDTAVYYCASTLGLVLDAMDYWGQGTLVTVSS VL: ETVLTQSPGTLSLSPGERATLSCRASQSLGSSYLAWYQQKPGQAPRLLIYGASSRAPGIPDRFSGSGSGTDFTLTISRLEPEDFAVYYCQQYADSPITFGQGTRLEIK	2.4
S30E (antibody, V domains shown, GC1008 IgG4 variant) VH: QVQLVQSGAEVKKPGSSVKVSCKASGYTFESNVISWVRQAPGQGLEWMGGVIPIVDIANYAQRFKGRVTITADESTSTTYMELSSLRSEDTAVYYCASTLGLVLDAMDYWGQGTLVTVSS VL: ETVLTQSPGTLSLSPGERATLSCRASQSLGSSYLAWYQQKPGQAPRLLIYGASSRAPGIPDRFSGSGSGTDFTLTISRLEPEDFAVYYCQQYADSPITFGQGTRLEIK	1.4

Now examine the next entry.
Looking up E74W (antibody, V domains shown, GC1008 IgG4 variant) VH: QVQLVQSGAEVKKPGSSVKVSCKASGYTFSSNVISWVRQAPGQGLEWMGGVIPIVDIANYAQRFKGRVTITADWSTSTTYMELSSLRSEDTAVYYCASTLGLVLDAMDYWGQGTLVTVSS VL: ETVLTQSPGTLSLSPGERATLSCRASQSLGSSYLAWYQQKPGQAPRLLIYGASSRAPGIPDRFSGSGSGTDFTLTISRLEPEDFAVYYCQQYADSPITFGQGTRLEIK , I found its kd mutant/kd wt recorded as 0.3
